Values from PubChem BioAssay AID504465

procedure-details: IN Cell qHTS Assay for Inhibitors of the mTORC1 Signaling Pathway in MEF (Tsc2-/-, p53-/-) Cells: Sytravon; further: nearly all actives have a fitted effect of over 60% in size
settings: phospho-rpS6 immunofluorescence, 24 h; series mostly up to 38.3 µM
The whole screen tested about 2,100 compounds, of which about 210 (10%) were called active. Another 53% or so got no clear call; they are omitted. The call rests on the fitted dose curve; in most records, active means well fitted inhibition curve with a large enough effect; inconclusive means small, poorly fitted or top-dose-only effect, or effect the other way; inactive means no such curve, though single readings can be large or run the other way. The list shows a part of the results.
Possible outcomes: yes (1) (active), no (0) (inactive)

>>> assigned_label("Cc1ccc(-c2cnc(NCc3ccc(C(F)(F)F)cc3)n2C)cc1")
"no (0)"
>>> assigned_label("CCOc1ccccc1CNC(=O)CCc1cn(C)c2ccccc12")
"no (0)"
>>> assigned_label("Cc1ccc2nc3sc(C(=O)Nc4ccc(F)cc4)cc3cc2c1")
"yes (1)"
>>> assigned_label("CCN(CC)S(=O)(=O)c1ccc2oc(C(=O)NCc3ccccc3OC)c(C)c2c1")
"no (0)"
>>> assigned_label("COc1ccc(C2=CC(c3ccc(F)cc3)n3ncc(C(=O)Nc4ccc(C)cc4)c3N2)cc1 (configuration not stated)")
"no (0)"
>>> assigned_label("Cc1ccc(-c2nc(-c3cccs3)c(-c3cccs3)[nH]2)cc1")
"no (0)"
>>> assigned_label("CCOC(=O)c1ccc2c(c1)N(Cc1cccc([N+](=O)[O-])c1)C(=O)c1ccccc1S2")
"no (0)"
>>> assigned_label("CC(=O)c1ccc(N2CCN(S(=O)(=O)c3ccc(-c4coc(C)n4)cc3)CC2)cc1")
"no (0)"
>>> assigned_label("COc1ccc(C(=O)CC2(O)C(=O)N(Cc3cccc(C(F)(F)F)c3)c3ccccc32)cc1 (configuration not stated)")
"yes (1)"
>>> assigned_label("COc1ccc(-c2ccc3c(N)c(C(=O)Nc4cccc(C)c4)sc3n2)cc1")
"yes (1)"
>>> assigned_label("COc1cc(CNc2ccc3c(c2)ncn3C(C)C)cc(OC)c1OC")
"no (0)"
>>> assigned_label("CCOc1ccc(NC(=O)CSc2c3c(nc4ccccc24)CCCC3)cc1")
"no (0)"
>>> assigned_label("Cc1ccc(OCC(=O)Nc2nnc(SCc3cc(=O)n4cc(C)ccc4n3)s2)cc1")
"no (0)"
>>> assigned_label("COc1ccc(-c2ccc3c(N)c(C(=O)Nc4ccc(C(F)(F)F)cc4)sc3n2)cc1OC")
"yes (1)"
>>> assigned_label("CCCn1c(=O)sc2cc(NC(=O)c3ccc(OC)c(Br)c3)ccc21")
"no (0)"
>>> assigned_label("CC(C)Oc1ccc(CNC(=O)CCn2c(=O)c3cccn3c3ccc(F)cc32)cc1")
"no (0)"
>>> assigned_label("COc1ccc(N2CC(c3nc(-c4cc(OC)c(OC)c(OC)c4)no3)CC2=O)cc1Cl (configuration not stated)")
"no (0)"
>>> assigned_label("COc1ccc(-c2nc3cc(NC(=O)Cc4ccc(Cl)cc4)ccc3o2)cc1OC")
"yes (1)"
>>> assigned_label("COc1cccc(-c2noc(CCCC(=O)NCc3ccco3)n2)c1")
"no (0)"
>>> assigned_label("COc1ccc(S(=O)(=O)Nc2ccc3oc4c(c3c2)CCCC4)cc1")
"no (0)"
>>> assigned_label("COC(=O)CN1C(=O)C(O)(CC(=O)c2ccc(F)cc2)c2ccccc21 (configuration not stated)")
"no (0)"
>>> assigned_label("COc1ccc(NC(=O)CCn2cnc3onc(-c4ccc(F)cc4)c3c2=O)cc1OC")
"no (0)"
>>> assigned_label("O=C(Nc1ccc(Cl)cc1)C1CCC(CNS(=O)(=O)c2ccc(Br)s2)CC1 (configuration not stated)")
"no (0)"
>>> assigned_label("COc1cccc(-c2ccc3c(N)c(C(=O)c4ccc(Cl)cc4)sc3n2)c1")
"yes (1)"
>>> assigned_label("CCCCN1C(=O)C(O)(c2c[nH]c3ccccc23)c2cc(Br)ccc21 (configuration not stated)")
"no (0)"
>>> assigned_label("COc1ccc2c(c1)CC(C(=O)Nc1cc(Cl)ccc1C)CO2 (configuration not stated)")
"no (0)"
>>> assigned_label("O=C(CC1(O)C(=O)N(Cc2ccccc2)c2ccc(Br)cc21)c1ccccc1 (configuration not stated)")
"yes (1)"
